Below, each entry is listed with its recorded Ki.
Target: Dopamine D2 receptor (Homo sapiens, UniProt P14416)
Construct: purchased Receptor Biology (now owned by NEN) RBHD2CM
Sequence (P14416 1-414 isoform P14416-2): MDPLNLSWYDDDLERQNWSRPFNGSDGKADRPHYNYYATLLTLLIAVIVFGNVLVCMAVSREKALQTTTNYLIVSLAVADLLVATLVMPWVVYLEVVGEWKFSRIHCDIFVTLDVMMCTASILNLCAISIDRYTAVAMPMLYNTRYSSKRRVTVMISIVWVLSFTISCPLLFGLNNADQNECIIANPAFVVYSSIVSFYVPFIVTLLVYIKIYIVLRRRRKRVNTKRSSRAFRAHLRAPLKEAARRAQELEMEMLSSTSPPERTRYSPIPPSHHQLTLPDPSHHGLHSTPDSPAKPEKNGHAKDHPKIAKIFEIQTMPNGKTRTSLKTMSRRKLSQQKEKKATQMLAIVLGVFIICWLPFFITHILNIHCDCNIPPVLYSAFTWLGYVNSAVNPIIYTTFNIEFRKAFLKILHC
Assay: Dopamine D2 receptor binding assay ([125I]iodospiperone)
Details: relative Ki scale of Table 5; read-out: Relative D2 Receptor Binding Affinity Ki
Structures can show the parent of a compound that is named as a salt.

- compound: "COC(C)C[C@H]1CN(C2=Nc3ccccc3Nc3sc(C)cc32)CCN1 (mixture of isomers)"
  Ki: "10 to 100 nM"
- compound: "Cc1cc2c(s1)Nc1ccccc1N=C2N1CCN(C)[C@@H](CC(C)(C)O)C1 [Example 370, dihydrochloride]"
  Ki: "100 to 1000 nM"
- compound: "CCOCC[C@H]1CN(C2=Nc3ccccc3Nc3sc(C)nc32)CCN1"
  Ki: "10 to 100 nM"
- compound: "COCC[C@H]1CN(C2=Nc3ccccc3Nc3ccc(C)cc32)CCN1C"
  Ki: "100 to 1000 nM"
- compound: "Cc1cc2c(s1)Nc1ccccc1N=C2N1CCN[C@@H](CC(C)(C)O)C1"
  Ki: "100 to 1000 nM"

###

In this section, each of the compounds is paired with its reported Ki.
Target: Dopamine D2 receptor (Homo sapiens)
Construct: purchased Receptor Biology (now owned by NEN) RBHD2CM
Experiment: Dopamine D2 receptor binding assay ([125I]iodospiperone)
Details: relative Ki scale of Table 5; read-out: Relative D2 Receptor Binding Affinity Ki
Counter-ions that a name gives are not always drawn.

- compound: "COCC[C@H]1CN(C2=Nc3ccccc3Nc3sc(C(C)C)nc32)CCN1CCO [Example 342, dihydrochloride]"
  measurementTarget: "Dopamine D2 receptor (Homo sapiens)"
  Ki: "10 to 100 nM"
- compound: "CCOCC[C@H]1CN(C2=Nc3ccccc3Nc3sc(C)cc32)CCN1C [Example 268, dihydrochloride]"
  measurementTarget: "Dopamine D2 receptor (Homo sapiens)"
  Ki: "10 to 100 nM"
- compound: "COCC[C@H]1CN(C2=Nc3ccccc3Nc3sc(C(F)(F)F)nc32)CCN1 [Example 314]"
  measurementTarget: "Dopamine D2 receptor (Homo sapiens)"
  Ki: "< 10 nM"
- compound: "CC(C)c1nc2c(s1)Nc1ccccc1N=C2N1CCN(C)[C@@H](CCO)C1 [Example 326]"
  measurementTarget: "Dopamine D2 receptor (Homo sapiens)"
  Ki: "< 10 nM"
- compound: "CCOC(=O)c1nc2c(s1)Nc1ccccc1N=C2N1CCN[C@@H](CCOC)C1 [Example 313]"
  measurementTarget: "Dopamine D2 receptor (Homo sapiens)"
  Ki: "100 to 1000 nM"
- compound: "COCC[C@H]1CN(C2=Nc3ccccc3Nc3sc(C)cc32)CCN1 [Example 242, hydrochloride]"
  measurementTarget: "Dopamine D2 receptor (Homo sapiens)"
  Ki: "10 to 100 nM"
- compound: "CCCCc1nc2c(s1)Nc1ccccc1N=C2N1CCN[C@@H](CCOC)C1 [Example 305]"
  measurementTarget: "Dopamine D2 receptor (Homo sapiens)"
  Ki: "10 to 100 nM"
- compound: "Cc1nc2c(s1)Nc1ccccc1N=C2N1CCN(C)[C@@H](CCO)C1 [Example 319, dihydrochloride]"
  measurementTarget: "Dopamine D2 receptor (Homo sapiens)"
  Ki: "10 to 100 nM"

Every entry's value here was drawn from patent US7384934B2.
